Source listed as ChEMBL document CHEMBL1143640.

test: Area under the plasma concentration curve was determined at 0-6 hours in rat after ~2 mg/kg oral dosage; n=2
reported.metric: AUC at 6 h (µM·h)

Reference set, count: 3
{"molecule": "CCN(C(=O)Cc1ccc(S(C)(=O)=O)cc1)C1CCN(CCC(c2ccc(F)cc2)c2ccc(F)cc2)CC1", "units": "µM·h", "AUC at 6 h": 1.87}
{"molecule": "CCN(C(=O)Cc1ccc(S(C)(=O)=O)cc1)C1CCN(CCC(c2ccc(NS(C)(=O)=O)cc2)c2cccc(F)c2)CC1 (stereo not given)", "units": "µM·h", "AUC at 6 h": 0.002}
{"molecule": "C=CCN(C(=O)Cc1ccc(S(C)(=O)=O)cc1)C1CCN(CCC(c2ccccc2)c2ccccc2)CC1", "units": "µM·h", "AUC at 6 h": 0.132}

1. CCN(C(=O)Cc1ccc(S(C)(=O)=O)cc1)C1CCN(CCC(c2ccc(NC(C)=O)cc2)c2cccc(F)c2)CC1 (stereo not given)
2. CCN(C(=O)Cc1ccc(S(C)(=O)=O)cc1)C1CCN(CCC(c2ccccc2)c2ccc(NC(=O)Cc3ccccc3)cc2)CC1 (stereo not given)
Between 1 and 2 , which one shows the larger AUC at 6 h value? Please indicate the selected item by its label.
2
(2: 0.012 µM·h, 1: 0.008 µM·h)

---

assay: In vitro intrinsic clearance against rat hepatocytes
reported.metric: Clint (uL/min/10e6 cells)

{"compound": "CCN(C(=O)Cc1ccc(S(C)(=O)=O)cc1)C1CCN(CCC(c2ccc(F)cc2)c2ccc(F)cc2)CC1", "reported.metric": "Clint", "value.observed": 4}

I. CCN(C(=O)Cc1ccc(S(C)(=O)=O)cc1)C1CCN(CCC(c2ccccc2)c2ccc(Cl)cc2)CC1 (stereo not drawn)
II. CCN(C(=O)Cc1ccc(S(C)(=O)=O)cc1)C1CCN(CCC(c2ccc(NS(C)(=O)=O)cc2)c2cccc(F)c2)CC1 (stereo not drawn)
III. C=CCN(C(=O)Cc1ccc(S(C)(=O)=O)cc1)C1CCN(CCC(c2ccccc2)c2ccccc2)CC1
Rank items: key Clint, increasing. The response must list the labels following the requested ordering.
II, I, III
(II: 15 uL/min/10e6 cells, I: 34 uL/min/10e6 cells, III: 54 uL/min/10e6 cells)

---

molecular target: C-C chemokine receptor type 5 (Homo sapiens); experiment: Inhibition of MIP-1beta stimulated calcium transients in CCR5-expressing CHO cells; assay type: functional, cell-based
reported.metric: IC50 (nM)
Report only the number, with the unit nM understood.

Lab note: record IC50 of CCN(C(=O)Cc1ccc(S(C)(=O)=O)cc1)C1CCN(CCC(c2ccccc2)c2ccc(NS(C)(=O)=O)cc2)CC1 (stereo unspecified) tested on C-C chemokine receptor type 5 (Homo sapiens).
24

---

molecular target: C-C chemokine receptor type 5 (Homo sapiens, UniProt P51681); assay: Displacement of [125I]-MIP-1 alpha from human C-C chemokine receptor type 5 expressed in CHO cells; type: cell-based
Sequence (P51681 whole entry): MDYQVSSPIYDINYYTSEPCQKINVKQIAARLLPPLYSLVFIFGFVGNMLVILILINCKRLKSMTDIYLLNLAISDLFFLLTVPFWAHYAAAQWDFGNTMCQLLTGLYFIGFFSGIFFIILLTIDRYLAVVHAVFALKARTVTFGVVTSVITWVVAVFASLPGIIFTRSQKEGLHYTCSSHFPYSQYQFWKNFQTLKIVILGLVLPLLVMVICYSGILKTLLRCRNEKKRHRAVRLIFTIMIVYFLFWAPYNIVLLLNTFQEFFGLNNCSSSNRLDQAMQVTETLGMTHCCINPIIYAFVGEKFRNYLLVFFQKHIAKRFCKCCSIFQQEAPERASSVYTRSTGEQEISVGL
pIC50: −log10 of the molar value.
reported.metric: pIC50

Some compounds with known pIC50 results, for comparison:
{"compound": "CCN(C(=O)Cc1ccc(S(C)(=O)=O)cc1)C1CCN(CCC(c2ccccc2)c2ccc(C(=O)OC)cc2)CC1 (stereo not drawn)", "tested.system": "C-C chemokine receptor type 5 (Homo sapiens, UniProt P51681)", "pIC50": 8.15}
{"compound": "CCN(C(=O)Cc1ccc(S(C)(=O)=O)cc1)C1CCN(CCC(c2ccccc2)c2ccc(Cl)cc2)CC1 (stereo not drawn)", "tested.system": "C-C chemokine receptor type 5 (Homo sapiens, UniProt P51681)", "pIC50": 8.07}
{"compound": "CCN(C(=O)Cc1ccc(S(C)(=O)=O)cc1)C1CCN(CCC(c2ccccc2)c2ccc(C(N)=O)cc2)CC1 (stereo not drawn)", "tested.system": "C-C chemokine receptor type 5 (Homo sapiens, UniProt P51681)", "pIC50": 6.59}

1. CCN(C(=O)Cc1ccc(S(C)(=O)=O)cc1)C1CCN(CCC(c2ccc(Cl)cc2)c2cccc(F)c2)CC1 (stereo not drawn)
2. CCN(C(=O)Cc1ccc(S(C)(=O)=O)cc1)C1CCN(CCC(c2ccccc2)c2ccc(SC)cc2)CC1 (stereo not drawn)
3. CCN(C(=O)Cc1ccc(S(C)(=O)=O)cc1)C1CCN(CCC(c2ccccc2)c2ccc(C(F)(F)F)cc2)CC1 (stereo not drawn)
4. CCN(C(=O)Cc1ccc(S(C)(=O)=O)cc1)C1CCN(CCC(c2ccccc2)c2ccc(NC(=O)OC(C)(C)C)cc2)CC1 (stereo not drawn)
Output the entries ranked by pIC50 from maximum down to minimum. Note for the reader: the ranking is given by listing the labels in the order requested.
3, 2, 1, 4
(3: 8.64, 2: 7.92, 1: 7.72, 4: 6.70)
